B1: Zinc finger homeobox protein 3, residues 2643 to 2698; numbered along this chain, Q15911 (parent)
chain: RLRTTITPEQLEILYQKYLLDSNPTRKMLDHIAHEVGLKKRVVQVWFQNTRARERK

# Variants of: B1
# Experiment summary: abundance fitness (aPCA) (normalised: wild type 0, dead -1); higher = more abundant; growth selection in yeast, the domain comes from the species named
# Condition: Homo sapiens
This listing pairs variants with measured abundance fitness.
Lab note: write the figure by itself, no unit.

These recorded examples may help you get a feel for the data.
{"Polymer sequence": "RLRTTITPEQLEVLYQKYLLDSNPTRKMLDHIAHEVGLKKRVVQVWFQNTRARERK [I13V]", "Measured": 0.057}
{"Polymer sequence": "RLRTTITPEQLEILYQKYLLDSNPTRKMLDHIAHEVGLKKRVVQVWFQNTRARGRK [E54G]", "Measured": -0.305}
{"Polymer sequence": "RLRTTLTPEQLEILYQKYLLDSNPTRKMLDHIAHEVGLKKRVVQVWFQNTRARERK [I6L]", "Measured": 0.051}

Query :: // abundance fitness lookup, key: RLRTTITPEQLEILYQKYLLDSNHTRKMLDHIAHEVGLKKRVVQVWFQNTRARERK [P24H]
Result :: -0.687

Query :: // abundance fitness lookup, key: RLRTTITPEQLEILYQKYLLDSNPTRKMLDHIAHEVGLKKRVSQVWFQNTRARERK [V43S]
Result :: -0.821

Query :: // abundance fitness lookup, key: RLRTTITPEQLEILYQKYLLDSNPTRKMLDHIAHEVGLKKRVVQVWFQNKRARERK [T50K]
Result :: -0.091

Query :: // abundance fitness lookup, key: RLRTTITPEQLEILYQKYLLDSNPTRKMLDHIAHEVGLKKRVVQVWFQNTRACERK [R53C]
Result :: 0.052

Query :: // abundance fitness lookup, key: RLRTTITPEQLEILYQKYLLDSNPTRKMLDHIAHEVGLKKRVVQVWFINTRARERK [Q48I]
Result :: -0.687

Query :: // abundance fitness lookup, key: RLRTTITPEQLEILYQKYLLDSNPTRKMLDHIAHEVGLKKRVVQVWFQNTRARERT [K56T]
Result :: 0.01

Query :: // abundance fitness lookup, key: RLRTTILPEQLEILYQKYLLDSNPTRKMLDHIAHEVGLKKRVVQVWFQNTRARERK [T7L]
Result :: -0.212

Query :: // abundance fitness lookup, key: RLRTTITPEQLEILYQKYLLDSNPTRKMLDHIAHEVGLKKRVVQVWFQNTRARIRK [E54I]
Result :: -0.197

Query :: // abundance fitness lookup, key: RLRTTITPEQLEILYQKQLLDSNPTRKMLDHIAHEVGLKKRVVQVWFQNTRARERK [Y18Q]
Result :: -0.698

Query :: // abundance fitness lookup, key: RLRTTITPEQLEILYQKYLLWSNPTRKMLDHIAHEVGLKKRVVQVWFQNTRARERK [D21W]
Result :: -0.741
